- TARGET_OR_SYSTEM: T1, His-TRAF6_(310-522) (human, UniProt Q9Y4K3 310-522)
- T1 construct: also called His-T6; recombinant TRAF6 wild-type; source: E. coli BL21 Codon Plus RIPL, purified (Ni-NTA)
- T1 sequence: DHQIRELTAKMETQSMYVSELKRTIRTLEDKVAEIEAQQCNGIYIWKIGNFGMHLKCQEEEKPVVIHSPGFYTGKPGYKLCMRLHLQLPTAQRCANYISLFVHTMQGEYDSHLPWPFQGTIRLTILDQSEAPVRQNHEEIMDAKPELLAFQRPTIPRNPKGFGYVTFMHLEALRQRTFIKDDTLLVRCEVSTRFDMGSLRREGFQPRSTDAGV
- TEST_SUMMARY: AlphaScreen or HTRF; AlphaScreen PPI assay in competition: GST-LMP1 or GST-CD40 with His-TRAF6 (dose-response of TRAF6 inhibitor or control peptide, 4-parameter fit) or GST-LMP1 with His-TRAF2 (30 µM peptide)
- APPLIED_CONDITIONS: both partners purified
OBSERVABLE: pIC50
Reminder that pIC50 means the negative base-10 logarithm of the concentration expressed in mol/L.

Entry DRQIKIWFQNRRMKWKKRKIPTEDEY (also called RANK-derived peptide; source: bought: Novus Biologicals NBP2-26506) [TRAF6 inhibitor peptide DRQIKIWFQNRRMKWKK-RKIPTEDEY] , pIC50 reported as 6.75

Source: paper PMC10776578
